These entries and their values trace back to patent US20210130436A1.

# tested-target: T1, human CTLA4 (human, UniProt P16410 36-223)
# T1 construct: also called huCTLA4
# T1 sequence (P16410 36-223): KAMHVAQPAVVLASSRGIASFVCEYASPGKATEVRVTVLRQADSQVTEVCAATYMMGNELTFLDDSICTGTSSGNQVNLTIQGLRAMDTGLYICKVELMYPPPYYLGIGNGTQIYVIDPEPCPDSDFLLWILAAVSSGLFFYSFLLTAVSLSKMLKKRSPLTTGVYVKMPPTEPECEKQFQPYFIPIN
# assay-protocol: flow cytometry, CHO cells expressing huCTLA4
Assignment: determine reported MFI at 33.3 nM for the given binders.
Give the quantity in MFI, number only.

Please report the measured MFI at 33.3 nM for variant CD80 IgV-Fc H18Y/V68M/A71G/D90G (Fc fusion, not shown: small tags and cut ends; a dimerising Fc or GST) VIHVTKEVKEVATLSCGYNVSVEELAQTRIYWQKEKKMVLTMMSGDMNIWPEYKNRTIFDITNNLSIMILGLRPSDEGTYECVVLKYEKGAFKREHLAEVTLSVKAD 22300

Fill in reported MFI at 33.3 nM for this entry: variant CD80 IgV-Fc H18Y/A26E/E35D/M47L (Fc fusion, not shown: small tags and cut ends; a dimerising Fc or GST) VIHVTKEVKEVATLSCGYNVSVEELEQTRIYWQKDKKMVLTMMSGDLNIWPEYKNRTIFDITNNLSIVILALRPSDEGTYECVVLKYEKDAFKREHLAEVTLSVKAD 24000

Given variant CD80 IgV-Fc M47L/V68M/A71G/D90G (Fc fusion, not shown: small tags and cut ends; a dimerising Fc or GST) VIHVTKEVKEVATLSCGHNVSVEELAQTRIYWQKEKKMVLTMMSGDLNIWPEYKNRTIFDITNNLSIMILGLRPSDEGTYECVVLKYEKGAFKREHLAEVTLSVKAD , respond with its MFI at 33.3 nM. 17400

Tell me measured MFI at 33.3 nM for variant CD80 IgV-Fc H18Y/A26E/A71G/D90G (Fc fusion, not shown: small tags and cut ends; a dimerising Fc or GST) VIHVTKEVKEVATLSCGYNVSVEELEQTRIYWQKEKKMVLTMMSGDMNIWPEYKNRTIFDITNNLSIVILGLRPSDEGTYECVVLKYEKGAFKREHLAEVTLSVKAD please. 19900
